Task for the reader: assign each of the following compounds its reported Ki.
Target: truncated PI3Kα (p110α/iSH2 p85α), PI3KA_Act (Homo sapiens (Human))
Experiment: PI3Kα biochemical kinase assay, fluorescence polarization format (PI3KA_Act)
Details: 0.5 nM p110α/iSH2 p85, 1 mM ATP, 30 μM PIP2, 15-min preincubation; Morrison equation fit; read-out: PI3KA_Act Ki
Answers are plain numbers, in nM.

Example results:
# COMPOUND, RESULT UNIT, Ki
records = [
    ("CC(C)CC(=O)N1CC[C@](CO)(Nc2cc(-c3cnc(N)nc3)nc(N3CCOCC3)n2)C1", "nM", 0.116),
    ("Cc1ncc(-c2cc(N[C@@]3(CO)CCN(C(=O)OC(C)(C)C)C3)nc(N3CCOCC3)n2)cc1F", "nM", 19),
    ("CN(C)C(=O)CN1CC[C@](CO)(Nc2cc(-c3cnc(N)nc3)nc(N3CCOCC3)n2)C1", "nM", 1.48),
    ("CCOC(=O)N1CC[C@](COC(C)=O)(Nc2cc(-c3cnc(N)nc3)nc(N3CCOCC3)n2)C1", "nM", 3.23),
    ("CCOC(=O)N1CC[C@](CO)(Nc2nc(-c3cnc(N)nc3)nc(N3CCOCC3)n2)C1", "nM", 0.027),
]

Quick request: Ki for each listed item, please.
1. CC(C)S(=O)(=O)N1CC[C@](CO)(Nc2cc(-c3cnc(N)nc3)nc(N3CCOCC3)n2)C1
2. Cn1cc(C(=O)N2CC[C@](CO)(Nc3cc(-c4cnc(N)nc4)nc(N4CCOCC4)n3)C2)cn1
3. Nc1ncc(-c2cc(N[C@@]3(CO)CCN(C4CCCNC4=O)C3)nc(N3CCOCC3)n2)cn1 (stereo partly shown)
4. CC(=O)N1CC(CO)(Nc2cc(-c3cnc(N)nc3)nc(N3CCOCC3)n2)C1
5. Nc1ncc(-c2nc(N3CCOCC3)nc(N[C@@]3(CO)CCN(C(=O)OC4CC4)C3)c2F)cn1
6. CC(C)(C)OC(=O)N1CC[C@](C)(Nc2nc(N3CCOCC3)nc(-c3cnc(N)nc3)c2F)C1

## Result
1: 0.084; 2: 0.31; 3: 0.682; 4: 0.651; 5: 0.068; 6: 0.036

# map each compound to its Ki
1. Nc1ncc(-c2nc(N3CCOCC3)nc(N[C@]3(CO)CCCN(C(=O)OCC(F)F)C3)c2F)cn1
2. COC(=O)N1CC[C@](CO)(Nc2nc(-c3cnc(N)nc3)nc(N3CCOCC3)n2)C1
3. CC(=O)N1CC[C@](CO)(Nc2cc(-c3cnc(N)nc3)nc(N3CCOCC3)n2)C1
4. CCC(=O)N1CCC[C@](CO)(Nc2nc(N3CCOCC3)nc(-c3cnc(N)nc3)c2F)C1
5. CC(C)(C)CC(=O)N1CC[C@](CO)(Nc2cc(-c3cnc(N)nc3)nc(N3CCOCC3)n2)C1

## Result
1: 2.96; 2: 0.103; 3: 0.771; 4: 0.237; 5: 0.054

###

Target: truncated PI3Kα (p110α/iSH2 p85α), PI3KA_Act (Homo sapiens (Human), UniProt P42336)
Sequence (P42336 whole entry, the tested form may be a part): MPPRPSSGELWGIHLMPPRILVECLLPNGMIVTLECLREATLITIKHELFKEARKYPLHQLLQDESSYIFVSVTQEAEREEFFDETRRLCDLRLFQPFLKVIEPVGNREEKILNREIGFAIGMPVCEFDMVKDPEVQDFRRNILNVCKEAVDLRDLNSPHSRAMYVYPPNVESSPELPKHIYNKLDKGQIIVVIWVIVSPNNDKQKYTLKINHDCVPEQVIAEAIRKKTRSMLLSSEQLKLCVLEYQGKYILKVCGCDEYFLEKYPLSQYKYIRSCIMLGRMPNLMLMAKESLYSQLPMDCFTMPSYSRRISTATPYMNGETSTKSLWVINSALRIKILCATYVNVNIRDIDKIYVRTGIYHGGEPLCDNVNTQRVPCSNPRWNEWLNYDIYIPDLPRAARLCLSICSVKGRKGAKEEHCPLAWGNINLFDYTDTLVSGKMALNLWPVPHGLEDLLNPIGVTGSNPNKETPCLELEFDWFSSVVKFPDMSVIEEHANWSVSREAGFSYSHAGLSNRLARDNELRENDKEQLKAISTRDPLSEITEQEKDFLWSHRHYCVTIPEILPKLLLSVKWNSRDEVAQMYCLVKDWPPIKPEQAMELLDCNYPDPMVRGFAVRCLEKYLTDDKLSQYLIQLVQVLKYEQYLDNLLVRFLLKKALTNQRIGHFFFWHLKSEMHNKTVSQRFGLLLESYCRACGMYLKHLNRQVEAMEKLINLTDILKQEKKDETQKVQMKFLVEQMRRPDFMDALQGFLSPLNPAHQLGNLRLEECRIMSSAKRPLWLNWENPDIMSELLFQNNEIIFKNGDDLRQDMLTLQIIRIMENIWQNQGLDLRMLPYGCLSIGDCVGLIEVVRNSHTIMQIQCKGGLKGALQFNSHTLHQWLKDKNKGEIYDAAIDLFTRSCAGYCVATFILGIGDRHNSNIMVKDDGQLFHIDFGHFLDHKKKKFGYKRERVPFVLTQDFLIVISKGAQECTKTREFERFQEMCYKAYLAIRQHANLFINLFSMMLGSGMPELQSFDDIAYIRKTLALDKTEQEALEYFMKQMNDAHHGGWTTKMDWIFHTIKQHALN
Assay: PI3Kα biochemical kinase assay, fluorescence polarization format (PI3KA_Act)
Conditions: PI3KA_Act Ki (nM), 0.5 nM p110α/iSH2 p85, 1 mM ATP, 30 μM PIP2, 15-min preincubation; Morrison equation fit
QUANTITY NAME: Ki

# COMPOUND, Ki
data = [
    ("Nc1ncc(-c2nc(N3CCOCC3)nc(N[C@@]3(CO)CCN(C(=O)OCC(F)(F)F)C3)c2F)cn1 [Example 140]", "< 0.018 nM"),
]

## Task # value lookup — system truncated PI3Kα (p110α/iSH2 p85α), PI3KA_Act (Homo sapiens (Human), UniProt P42336), readout Ki, item C[C@H]1COCCN1c1nc(N[C@@]2(CO)CCN(C(=O)OCC(F)F)C2)c(F)c(-c2cnc(N)nc2)n1 [Example 119]
## Result < 0.018 nM
